Procedure Summary: Three-point bending test of cured product
Type: physicochemical
Condition Context: Table 2; composition: compound 1.80 g, UDMA 2.5 g, TEGDMA 0.74 g, plus 0.5 parts by weight TPO; cured product stored in deionized water at 37° C. 24 hours
Metric Name: Cured product bending test result Maximum stress (MPa)

1) C=C(C)C(=O)OCCOCCNC(=O)OCC(COC(=O)NCCOCCOC(=O)C(=C)C)OP(=O)(O)O [Compound 6] | 89
2) C=C(C)C(=O)OCCNC(=O)OCC(COC(=O)NCCOC(=O)C(=C)C)OP(=O)(O)O [Compound 2] | 102
3) C=C(C)C(=O)OCCNC(=O)OCC(COCC(COC(=O)NCCOC(=O)C(=C)C)OP(=O)(O)O)OC(=O)NCCOC(=O)C(=C)C (stereo not shown) [Compound 4] | 102
4) C=C(C)C(=O)OCCCCCCCCCCOP(=O)(O)O [MDP, reference compound] | 85

* * *

Procedure Summary: Three-point bending test of cured product
Type: physicochemical
Condition Context: Table 3; composition: compound 60, UDMA 30, TEGDMA 10 parts by weight, plus 0.5 parts TPO
Below, each entry is listed alongside its reported Cured product bending test result Elastic modulus.
Metric Name: Cured product bending test result Elastic modulus (GPa)

1) C=C(C)C(=O)OCCNC(=O)OCC(COC(=O)NCCOC(=O)C(=C)C)OP(=O)(O)O | 2.2
2) C=C(C)C(=O)OCCOCCNC(=O)OCC(COC(=O)NCCOCCOC(=O)C(=C)C)OP(=O)(O)O | 1.3
3) C=C(C)C(=O)OCCNC(=O)OCC(COCC(COC(=O)NCCOC(=O)C(=C)C)OP(=O)(O)O)OC(=O)NCCOC(=O)C(=C)C (stereo not shown) | 2.3
4) C=C(C)C(=O)OCCCCCCCCCCOP(=O)(O)O [MDP, reference compound] | 0.32

* * *

Procedure Summary: Three-point bending test of cured product
Type: physicochemical
Condition Context: Table 3; composition: compound 60, UDMA 30, TEGDMA 10 parts by weight, plus 0.5 parts TPO
Metric Name: Cured product bending test result Maximum stress

1) C=C(C)C(=O)OCCOCCNC(=O)OCC(COC(=O)NCCOCCOC(=O)C(=C)C)OP(=O)(O)O | 66 MPa
2) C=C(C)C(=O)OCCCCCCCCCCOP(=O)(O)O [MDP, reference compound] | 22 MPa
3) C=C(C)C(=O)OCCNC(=O)OCC(COCC(COC(=O)NCCOC(=O)C(=C)C)OP(=O)(O)O)OC(=O)NCCOC(=O)C(=C)C (stereo not shown) | 88 MPa
4) C=C(C)C(=O)OCCNC(=O)OCC(COC(=O)NCCOC(=O)C(=C)C)OP(=O)(O)O | 92 MPa

* * *

Procedure Summary: Three-point bending test of cured product
Format: physicochemical
Condition Context: Table 2; composition: compound 1.80 g, UDMA 2.5 g, TEGDMA 0.74 g, plus 0.5 parts by weight TPO; cured product stored in deionized water at 37° C. 24 hours
Metric Name: Cured product bending test result Elastic modulus (GPa)

1) C=C(C)C(=O)OCCNC(=O)OCC(COCC(COC(=O)NCCOC(=O)C(=C)C)OP(=O)(O)O)OC(=O)NCCOC(=O)C(=C)C (stereo not shown) | 2.4
2) C=C(C)C(=O)OCCCCCCCCCCOP(=O)(O)O [MDP, reference compound] | 1.7
3) C=C(C)C(=O)OCCNC(=O)OCC(COC(=O)NCCOC(=O)C(=C)C)OP(=O)(O)O | 2.3
4) C=C(C)C(=O)OCCOCCNC(=O)OCC(COC(=O)NCCOCCOC(=O)C(=C)C)OP(=O)(O)O | 2.0
